These data points were gathered from paper PMC11876601.

tested on: p-sites in DNA-damaged AsPC-1 cells; test: decryptM dose-resolved phosphoproteomics of ATRi in GEM-pre-treated cells; format: cell-based, human; conditions: HDGF-pS103
Consider the following molecules; for each one, report its Log2 PTM response (GEM+ATRi vs. GEM).
Give bare numbers.

Check out these entries, answers already filled in.
substance.smiles	Log2 PTM response (GEM+ATRi vs. GEM)
C[C@@H]1COCCN1c1cc(-c2ccnn2C)c2ccnc(-c3ccn[nH]3)c2n1	-1.1
Nc1nn2cc(F)cnc2c1C(=O)Nc1cncc(F)c1N1CCC(C(=O)N2CCN(C3COC3)CC2)CC1	-1.6
CNCc1ccc(-c2cc(-c3nc(-c4ccc(S(=O)(=O)C(C)C)cc4)cnc3N)on2)cc1	-2.4

Turning now to a further molecule:
Asked: Recorded Log2 PTM response (GEM+ATRi vs. GEM) for `C[C@@H]1COCCN1c1cc(C2([S@](C)(=N)=O)CC2)nc(-c2cc[nH]c3nccc2-3)n1` , please?
Given back: -1.4

###

tested on: PANC-1; assay: cells; parameters: Viability of PDAC cell lines, ATPlite luminescence, 11-dose single-agent curve fit; conditions: Homo sapiens, PANC-1, 72 h, read-out: EC50 [nM]
Consider the following compounds; for each one, report its EC50.

substance.smiles	result
C[C@]1(O)C[C@@H](c2nc(-c3ccc4ccc(-c5ccccc5)nc4c3)c3c(N)nccn32)C1	> 10000 nM

Below are 2 compounds. Give each one its EC50.
1. CO[C@H]1C[C@@H]2CC[C@@H](C)[C@@](O)(O2)C(=O)C(=O)N2CCCC[C@H]2C(=O)O[C@H]([C@H](C)C[C@@H]2CC[C@@H](OC(=O)C(C)(CO)CO)[C@H](OC)C2)CC(=O)[C@H](C)/C=C(\C)[C@@H](O)[C@@H](OC)C(=O)[C@H](C)C[C@H](C)/C=C/C=C/C=C/1C
2. FC(F)(F)c1ccc(CNc2ccc(Cc3c[nH]c4ncc(Cl)cc34)cn2)cn1

Given back:
1. 29.2 nM
2. 2210 nM

###

Consider the following compounds; for each one, report its EC50.
test system: MiaPaCa-2; assay: cells; parameters: ATPlite luminescence viability of PDAC cell lines, 11-dose single-agent curves, 4-parameter fit; details: Homo sapiens, MIA PaCa-2, 72 h, read-out: EC50 [nM]
Give bare numbers, in nM.

compound	target.under.test	EC50 [nM]
CO[C@]1(C(=O)N[C@@H](C)c2ccc(-n3cc(F)cn3)nc2)CC[C@H](c2nc(C)cc(Nc3cc(C)[nH]n3)n2)CC1	MiaPaCa-2	773
CCN(CC)CCNC(=O)c1c(C)[nH]c(/C=C2\C(=O)Nc3ccc(F)cc32)c1C	MiaPaCa-2	2340
CC(=O)c1cc2c(o1)C(=O)c1ccccc1C2=O	MiaPaCa-2	176
CN(C)CCCOc1ccc(-c2ccc3ncc4c(c3c2)n(C2CCOCC2)c(=O)n4C)cn1	MiaPaCa-2	1010
CN1CCN(CCOc2cc(OC3CCOCC3)c3c(Nc4c(Cl)ccc5c4OCO5)ncnc3c2)CC1	MiaPaCa-2	51.6
COC(=O)N[C@@H](C)CNc1nccc(-c2cn(C(C)C)nc2-c2cc(Cl)cc(NS(C)(=O)=O)c2F)n1	MiaPaCa-2	1290
COc1cc2c(Oc3ccc4[nH]c(C)cc4c3F)ccnc2cc1OCC1(N)CC1	MiaPaCa-2	1720
C=CC(=O)Nc1cccc(Oc2nc(Nc3ccc(N4CCN(C)CC4)cc3)nc3ccsc23)c1	MiaPaCa-2	5290
CC(C)n1nc(-c2ccc3oc(N)nc3c2)c2c(N)ncnc21	MiaPaCa-2	10.1
O=C1NC(=O)[C@@H](c2cn3c4c(cccc24)CCC3)[C@@H]1c1c[nH]c2ccccc12 [Tivantinib]	MiaPaCa-2	313

Below are 4 compounds. Give each one its EC50.
1. COc1cc(N2CCC(N3CCN(C)CC3)CC2)ccc1Nc1ncc(Cl)c(Nc2ccccc2P(C)(C)=O)n1
2. CCOc1cc2ncc(C#N)c(Nc3ccc(OCc4ccccn4)c(Cl)c3)c2cc1NC(=O)/C=C/CN(C)C
3. CCn1c(=O)c(-c2cc(NC(=O)Nc3ccccc3)c(F)cc2Br)cc2cnc(NC)cc21
4. COc1cc(Nc2ncc(F)c(Nc3ccc4c(n3)N(COP(=O)(O)O)C(=O)C(C)(C)O4)n2)cc(OC)c1OC

Given back:
1: 177; 2: 863; 3: 589; 4: 946
